# TARGET UNDER TEST: eIF4E binding to m^7GTP RNA substrate (Homo sapiens, UniProt P06730)
# Sequence (P06730 whole entry): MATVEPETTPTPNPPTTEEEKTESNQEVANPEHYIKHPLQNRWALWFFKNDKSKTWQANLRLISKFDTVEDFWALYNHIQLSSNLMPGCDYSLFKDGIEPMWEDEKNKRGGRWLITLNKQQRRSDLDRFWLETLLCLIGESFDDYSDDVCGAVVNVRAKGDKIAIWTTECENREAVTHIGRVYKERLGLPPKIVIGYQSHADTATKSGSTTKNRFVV
# PROTOCOL DESCRIPTION: cell-based
# DETAILS: IC50 in CRISPR RiPCA, 6-hour treatment, read at 24 hours
RECORDED ENDPOINT: pIC50
Quick note: pIC50 values are minus log10 of concentrations in mol/L.

Cc1cc(-c2cc(Cl)ccc2OCCn2c(C)nc3cc(C(F)(F)F)cc(C#N)c3c2=O)c2scc(C(=O)O)c2n1	6.91

--- query ---
// pIC50 value for CO[C@H]1C[C@@H]2CC[C@@H](C)[C@@](O)(O2)C(=O)C(=O)N2CCCC[C@H]2C(=O)O[C@H]([C@H](C)C[C@@H]2CC[C@@H](O)[C@H](OC)C2)CC(=O)[C@H](C)/C=C(\C)[C@@H](O)[C@@H](OC)C(=O)[C@H](C)C[C@H](C)/C=C/C=C/C=C/1C : 5.33
